The reported numbers originate from PubChem BioAssay (NCI).

Measured growth inhibition, listed per entry.
testProtocol: NCI Yeast Anticancer Drug Screen. Data for the sgs1 mgt1 strain (AID 161);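 note: 0% = growth of cultures given vehicle only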
experimentalParameters: S. cerevisiae sgs1 mgt1 strain, at 50.0 µM, active compounds read high
The panel holds about 79,000 compounds, 15% with a hit somewhere; the sample as a whole holds those more often.
Provide only the numeric value, understood in %.

| molecule | growth inhibition (%) |
| --- | --- |
| CC(C)C(N)C(=O)NC(C(=O)O)C(C)C (configuration not stated) | -4.3 |

Let's switch to this molecule now.
Query (molecule): `CN(CN(C)N=Nc1ccc(Br)cc1)CN(C)N=Nc1ccc(Br)cc1` ; field requested: growth inhibition
4.45

----------
testProtocol: NCI Yeast Anticancer Drug Screen. Data for the mec2-1 strain (AID 157)
experimentalParameters: S. cerevisiae mec2-1 strain, at 50.0 µM, active compounds read high
Compounds without any hit were thinned out: in the full panel of roughly 79,000, 15% have a hit.
Measured growth inhibition, listed per entry.
Provide only the numeric value, understood in %.

Query (molecule): `CC(=O)NC1=CC(=O)c2cc(C)cc(O)c2C1=O` ; field requested: growth inhibition
21.9

Query (molecule): `COC(=O)c1ccc(NC(=O)c2cc(OC)c(OC)c(OC)c2)cc1` ; field requested: growth inhibition
-24.1

Query (molecule): `CCCC(CCC)C(=O)[O-].CCCC(CCC)C(=O)[O-].CCCC(CCC)C(=O)[O-].CCCC(CCC)C(=O)[O-].[Cu+2].[Cu+2]` ; field requested: growth inhibition
13.4

Query (molecule): `Cn1c(CC(O)(C(F)(F)Cl)C(F)(F)Cl)cc(=O)n1-c1ccccc1` ; field requested: growth inhibition
1.3

Query (molecule): O=C(O)c1ccccc1C(=O)OCC1CCCc2ccccc21 (stereo not given) ; field requested: growth inhibition
45.7

Query (molecule): `Cc1c(Br)c(C)[n+]([O-])n1O` ; field requested: growth inhibition
8.75

Query (molecule): CC(C)C(=O)CC1(O)C(=O)Nc2ccc([N+](=O)[O-])cc21 (stereo not given) ; field requested: growth inhibition
-0.2

Query (molecule): Cc1ccc(N2C(=O)ON(c3ccccc3)C2c2ccccc2)cc1 (stereo not given) ; field requested: growth inhibition
-5.8

Query (molecule): `Cc1cc(C)n(/N=C/c2ccco2)c(=O)c1C#N` ; field requested: growth inhibition
-33.1

Query (molecule): `O=c1[nH]nc(Sc2ccccc2)c2nncn12` ; field requested: growth inhibition
-1.05

----------
testProtocol: NCI Yeast Anticancer Drug Screen. Data for the sgs1 mgt1 strain (AID 161);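 note: 0% = growth of cultures given vehicle only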
experimentalParameters: S. cerevisiae sgs1 mgt1 strain, at 50.0 µM, active compounds read high
Compounds without any hit were thinned out: in the full panel of roughly 79,000, 15% have a hit. Calls of active or inactive are those of the source. Cut-off read from the data, not from the text of the source: active = growth inhibition above about 70%; inactive = the rest.
resultType: growth inhibition

Recorded growth inhibition, per entry:
| compound | growth inhibition |
| --- | --- |
| CCOC(=O)/C(F)=C/c1cccc(C#N)c1 | 8.1% (inactive) |
| C1=C(Oc2ccccc2)C2CC1C1CCCC21 (stereo unspecified) | -2.65% (inactive) |
| O=C(Nc1ccccc1)OCC#CCOC(=O)Nc1ccccc1 | 17.6% (inactive) |
| CC1=C(/C=C/C(C)=C\c2cc(C)cc(=O)o2)C(C)(C)CCC1 | 8.7% (inactive) |

Query (compound): c1ccc2c(c1)NC(SSC1Nc3ccccc3S1)S2 (stereo unspecified) ; field requested: growth inhibition
-2.65% (inactive)

Query (compound): CC(=O)OCC1OCOC2C(COC(C)=O)OCOC12 (stereo unspecified) ; field requested: growth inhibition
-8.15% (inactive)
